Tested on: NCI-H23 lung
Assay: NCI tumour cell line growth inhibition, 48 h
OBSERVABLE: TGI (µM)
# number only, unit µM dropped from output

O=C(N/N=C\c1cccc2c([N+](=O)[O-])cccc12)Nc1ccccc1; 35.2

GET /values?readout=TGI&item= CC(C)n1nc(-c2cc3cc(O)ccc3[nH]2)c2c(N)ncnc21
9.19

* * *

Tested on: LOX IMVI melanoma
Experiment: NCI tumour cell line growth inhibition, 48 h; in the data active means GI50 below about 0.43 µM; inactive means the rest
Select the correct class. Options are 1 (yes) for active, 0 (no) for inactive and nothing else.

Worked set:
CCCCC(O)(c1ccc(Cl)cc1)C(CN1CCOCC1)c1ccc(Cl)cc1 (configuration not stated); 0 (no)
COc1ccc(-c2n[nH]nc2-c2cc(OC)c(OC)c(OC)c2)cc1; 1 (yes)

How was CCCCCCCC/C=C/CCCCCCCC(=O)OC[C@H]1O[C@@H](n2ccc(N)nc2=O)C(F)(F)[C@@H]1O classified in this test?
1 (yes)

Recorded test outcome, item COC(=O)[C@@H](C)CNS(=O)(=O)N(c1cc(C(F)(F)F)cc(C(F)(F)F)c1)C1CCN(Cc2ccc(F)cc2)CC1
0 (no)

Recorded test call requested for CN(C)C(=O)c1cc2cnc(Nc3ccc(-c4csc5c(=S)cc(N6CCOCC6)oc45)cc3)nc2n1C1CCCC1
1 (yes)

Identify the outcome logged in this assay for the compound shown: O=C(N/N=C/c1ccc(Cl)cc1)c1ccc(C(F)(F)F)nc1Nc1cccc(C(F)(F)F)c1
0 (no)

Given O=C1OC(C(O)CO)C(=O)C1=O (configuration not stated) , state the outcome it received in this test.
0 (no)

* * *

Test system: HT29 colon
Assay: NCI tumour cell line growth inhibition, 48 h
OBSERVABLE: TGI

O=P(Nc1ccc(Cl)cc1)(Oc1ccccc1)N(CCCl)CCCl (centres undefined); > 100 µM
COC(=O)/C(=N\Nc1nnc(C)n1N)C(C#N)c1ccc(Cl)cc1 (centres undefined); > 100 µM
C=C1C(=O)O[C@H]2[C@H]1CC/C(COC(=O)C(=O)c1cn(Cc3ccccc3)c3ccccc13)=C\CC[C@@]1(C)O[C@@H]21; 4.53 µM

State its TGI on HT29 colon: COc1cc(C=C2C(=O)NC(=O)NC2=O)cc(OC)c1OC
> 100 µM

* * *

Reported TGI values for a set of compounds
Test system: SF-539 CNS
Assay: NCI tumour cell line growth inhibition, 48 h
The figure you give is taken to be in µM; do not add the unit.

Example entries and their recorded answers appear below.
N#CC(NNC(=O)Cc1ccccc1)c1c(O)ccc2ccccc12 (stereo not given); 29
Cc1cccc(NC(=O)C(=O)C(C(=O)c2ccc3ccccc3c2)C2OC(=O)c3ccccc32)c1C (stereo not given); 22.3
COc1ccc2ccccc2c1/C=C/C(=O)c1ccccc1; 7.23

Note: attention shifts to another entry.
Need TGI of CCOC(=O)C(=Cc1[nH]c2ccccc2c1-c1c[nH]c2ccccc12)C(=O)OCC , thanks.
39.1

* * *

Test system: UO-31 renal
Test: NCI tumour cell line growth inhibition, 48 h; in the data active means GI50 below about 0.43 µM; inactive means the rest
Respond only with the outcome that fits, drawn from true (1) for active, false (0) for inactive

COc1cc(-c2ccc3c(c2)NC(=O)/C3=C\c2ccc[nH]2)ccc1O; true (1)
COc1cc2nc3cc([N+](=O)[O-])ccc3c(NCCCNCCO)c2cc1OC; false (0)

// param item: Cc1cc(C(=O)Nc2ncc(Cc3cccc(C(F)(F)F)c3)s2)c2ccccc2n1 ; yields the recorded call
false (0)
